Give measured GI50 for each item. Keep answers brief.
Tested on: COLO 205
Experiment: NCI tumour cell line growth inhibition, 48 h
Active and inactive are the calls of the source. No stated cut-off is given here; in the data, active = GI50 up to about 1.1 µM and inactive = higher.

GI50 in this record for Oc1c2c(c(O)c3ccccc13)C1(N=N2)c2ccccc2Oc2ccccc21 : 13 µM (inactive)

GI50 in this record for C[C@H](c1ccccc1)n1c(N)c(-c2nc3ccccc3s2)c2ccc([N+](=O)[O-])cc2c1=O : 5.43 µM (inactive)

GI50 in this record for CC(=O)N/N=C1/CC[C@@]2(C)C(=CC[C@H]3C4CCC(C(C)CCCC(C)C)[C@@]4(C)CCC32)C1(C)C (stereo not given in full) : 32.9 µM (inactive)

GI50 in this record for CCOC(=O)c1c[nH]c(C(=O)OCC)c1-c1cccn1-c1ccccc1 : 21.3 µM (inactive)

GI50 in this record for CCN(CC)CCOCCOCC1(c2ccc(Cl)c(Cl)c2)CCCCC1 : 4.41 µM (inactive)

GI50 in this record for COc1ccccc1/C=C/C1=NN(c2cccc(S(=O)(=O)O)c2)C2(C1)C(Cl)C(=O)N2c1nc2ccccc2s1 (stereo not given) : 88.9 µM (inactive)

GI50 in this record for N#CCc1n[nH]c2nc(SCc3ccccc3)nc(N3CCCCC3)c12 : 17.9 µM (inactive)

GI50 in this record for CN1C/C(=C\c2cccs2)C2=NN(C)C(c3cccs3)C2C1 (stereo not given) : > 100 µM (inactive)

GI50 in this record for CSc1[nH]nc(N)c1C(=O)Nc1ccc(C)cc1 : 55 µM (inactive)

GI50 in this record for N#Cc1cccc2c1Sc1ccccc1N2 : 19.8 µM (inactive)

* * *

Give measured GI50 for each item. Keep answers brief.
System: UACC-62
Experiment: NCI tumour cell line growth inhibition, 48 h
Calls of active or inactive are those of the source. Rule as the data show it: active = GI50 up to about 1.1 µM and inactive = higher.

GI50 in this record for COc1ccccc1/C=C/C1=NN(c2cccc(S(=O)(=O)O)c2)C2(C1)C(Cl)C(=O)N2c1nc2ccccc2s1 (stereo not given) : 48.8 µM (inactive)

GI50 in this record for CC(=O)OCc1c(O)nc2c(c1O)-c1ccccc1CC2 : 50.5 µM (inactive)

GI50 in this record for COc1ccc2c(c1)CCc1cc(C(N)=O)c3nnnn3c1-2 : 1.67 µM (inactive)

GI50 in this record for O=S(=O)(O)SC/C=C\CSS(=O)(=O)O : > 100 µM (inactive)

GI50 in this record for O=C(CCc1nnc2s/c(=C\c3ccc(Cl)cc3Cl)c(=O)n12)Nc1cc(Cl)c(Cl)cc1Cl : > 10 µM (inactive)

* * *

Test system: PC-3
Assay: NCI tumour cell line growth inhibition, 48 h
The source made the active and inactive calls. No stated cut-off is given here; in the data, active = GI50 up to about 1.1 µM and inactive = higher.
Your answer must be one of the following: 1 (active), -1 (inactive)

[in] Call for entry CC1=C2C3=C(C)C(=O)C(C)(C)CC[C@@]3(C)[C@]2(C)CCC(C)(C)C1=O :
[out] -1

[in] Call for entry O=C1CCCC2C(O)CCC[C@H]12 (stereo partly specified) :
[out] -1

[in] Call for entry O=c1[nH]c(=O)n(Cc2ccccc2CO)cc1Sc1ccccc1 :
[out] -1

[in] Call for entry Cc1c2ccncc2cc2c1sc1ccncc12 :
[out] -1

[in] Call for entry C[C@H](c1ccccc1)n1c(N)c(-c2nc3ccccc3s2)c2ccc([N+](=O)[O-])cc2c1=O :
[out] -1

[in] Call for entry CCOC(=O)NC(NNc1ccc([N+](=O)[O-])cc1[N+](=O)[O-])(C(F)(F)F)C(F)(F)F :
[out] -1

[in] Call for entry CC12OC1(C)C1C(=O)OCC1C2=O (stereo unspecified) :
[out] -1

[in] Call for entry COc1cc(O)cc2oc(-c3ccc(O)cc3)cc(=O)c12 :
[out] -1

[in] Call for entry Cc1ccc(S(=O)(=O)c2[nH]cc(/C(=C\C3CCCCC3)[N+](=O)[O-])c2C2CCCCC2)cc1 :
[out] 1

[in] Call for entry Cn1c2ccccc2c2nc3ccccc3c(Cl)c21 :
[out] -1

[in] Call for entry Cc1ccc(C)c(NC(=O)C(=O)C(c2cnc3ccc([N+](=O)[O-])cc3n2)[N+](=O)[O-])c1 (stereo unspecified) :
[out] -1

* * *

Give measured GI50 for each item. Keep answers brief.
Test system: M19-MEL
Assay: NCI tumour cell line growth inhibition, 48 h
The source made the active and inactive calls. Cut-off read from the data, not from the text of the source: active = GI50 up to about 1.1 µM and inactive = higher.

Known value: M19-MEL GI50 of the compound CCOC(=O)CNC(SC)=C(C#N)C#N equals > 100 µM (inactive)

Known value: M19-MEL GI50 of the compound O=[N+]([O-])c1ccc(-c2ccc(/C=N/n3c(S)nnc3-c3ccc(Cl)cc3)o2)cc1 equals 21.1 µM (inactive)

Known value: M19-MEL GI50 of the compound CCCCCCn1c(SCC)c2ccccc2c1-c1nc(F)nc(F)n1 equals > 100 µM (inactive)

Known value: M19-MEL GI50 of the compound Nc1ncnc2c1ncn2CCCC(c1ccccc1)P(=O)(O)O (stereo unspecified) equals > 100 µM (inactive)

Known value: M19-MEL GI50 of the compound CN(C)CCNC(=O)c1cccc2ccc(-c3ccc(F)cc3)nc12 equals 4.33 µM (inactive)

Known value: M19-MEL GI50 of the compound COc1ccc2c(c1)c1ccc3c(c1n2C)C(=O)C=CC3=O equals 25.4 µM (inactive)

Known value: M19-MEL GI50 of the compound CCOc1ccc(NC(=O)CC2SC(Nc3ccc(Cl)cc3)=NC2=O)cc1 (stereo unspecified) equals > 100 µM (inactive)

Known value: M19-MEL GI50 of the compound Cc1nc(Nc2ccc(Cl)c(Cl)c2)sc1C(/C=C/c1ccc2c(c1)OCO2)=N/Nc1ccc([N+](=O)[O-])cc1[N+](=O)[O-] equals > 100 µM (inactive)

Known value: M19-MEL GI50 of the compound COC(=O)[C@H]1CC(=O)C=C2CCCC21 (stereo partly specified) equals > 100 µM (inactive)

Known value: M19-MEL GI50 of the compound O=S(O)CCCSSCCCCSSCCCS(=O)O equals > 100 µM (inactive)

Known value: M19-MEL GI50 of the compound C[Si](C)(C)/C=C/CN1C(=O)CCC1=O equals > 100 µM (inactive)

Known value: M19-MEL GI50 of the compound O=[N+]([O-])c1ccc2[nH]c3c(-c4ccccc4)nccc3c2c1 equals 25.9 µM (inactive)

Known value: M19-MEL GI50 of the compound COc1ccc(/C=C2\CCCCC2=O)cc1 equals > 100 µM (inactive)

Known value: M19-MEL GI50 of the compound O=[N+]([O-])c1cccc(Nc2nc(Cl)nc(Cl)n2)c1 equals > 100 µM (inactive)

Known value: M19-MEL GI50 of the compound COc1ccc(NC(=O)c2oc3cc(O)ccc3c(=O)c2C)c([N+](=O)[O-])c1 equals > 100 µM (inactive)

Known value: M19-MEL GI50 of the compound O=c1[nH]c2cc([N+](=O)[O-])ccc2nc1/C(=N/Nc1ccccc1)C(O)c1ccccc1Cl (stereo unspecified) equals 52.8 µM (inactive)

* * *

Tested on: A549
Test: NCI tumour cell line growth inhibition, 48 h
Activity calls are given as the source filed them. No stated cut-off is given here; in the data, active = GI50 up to about 1.1 µM and inactive = higher.
quantity-measured: GI50

GI50 in this record for COC(=O)C(NC(=O)C12CCC(C)(C(=O)O1)C2(C)C)c1cc(C(C)(C)C)c(O)c(C(C)(C)C)c1 (stereo not given) : > 100 µM (inactive)

GI50 in this record for CN1C/C(=C\c2cccs2)C2=NN(C)C(c3cccs3)C2C1 (stereo not given) : 89.3 µM (inactive)

GI50 in this record for COC(OC)[C@@H](C)[C@H](O)[C@](C)(O)C1OC(C)(C)OC(C(C)C=C(C)C)C1C (stereo not given in full) : > 100 µM (inactive)

GI50 in this record for COc1ccc(Cc2nc3cc(C(F)(F)F)ccc3n2C[C@@H]2CCCN3CCCCC23)cc1 (stereo not given in full) : 9.02 µM (inactive)

GI50 in this record for NS(=O)(=O)c1ccc(NC(=S)N/C=C2\C(=O)Oc3ccccc3C2=O)cc1 : 43 µM (inactive)

GI50 in this record for CC(CC[C@@H](O)C(C)(C)O)C1[C@@H](O)CC2(C)C3CC(O)C4C(C)(C)[C@@H](OC5OC(CO)C(O)C(O)C5O)CC[C@@]45C[C@@]35CC[C@]12C (stereo not given in full) : > 10 µM (inactive)

GI50 in this record for COC(=O)NNC(c1ccc(Cl)cc1)c1ccc(Cl)cc1 : 15.3 µM (inactive)

GI50 in this record for CS(=O)(=O)OCOS(C)(=O)=O : > 100 µM (inactive)

GI50 in this record for CC12OC1(C)C1C(=O)OCC1C2=O (stereo not given) : > 100 µM (inactive)

GI50 in this record for COc1cccc(C2c3cc4c(cc3OC(O)(CO)C2C(=O)O)OCO4)c1.COc1cccc(C2c3cc4c(cc3OC3(O)COC(=O)C23)OCO4)c1 (stereo not given) : 82.2 µM (inactive)
